B1: KLHL13 (parent)
chain: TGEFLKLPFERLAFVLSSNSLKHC

# Variants of: B1
# assay-text: protein stability index of a GFP-peptide fusion (GPS, HEK-293T) (PSI 1-6); higher = more stable;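 further: lentivirally expressed fusions sorted by FACS into six bins by GFP to DsRed ratio, PSI derived from sequencing read proportions per bin multiplied by bin number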
# measurement-context: c terminus: a fixed tail appended
observed-property: protein stability index
Numbers only.

# example entries with known answers
INSERT INTO measurements (mutant_designation, observed_property, number) VALUES
  ('A13P', 'protein stability index', 3.04),
  ('S18N', 'protein stability index', 1.98),
  ('S20H', 'protein stability index', 1.49);

Hello, I would appreciate it if you could give protein stability index for each entry below.
1. R11T
2. L12F
3. S20K
4. C24D
5. A13D
6. F9V
7. A13T
8. S17E

Result string:
[4.01, 3.73, 2.43, 2.13, 2.08, 2.23, 2.76, 1.86]

Here are 6 variants. What values of protein stability index were reported for them?
1. V15K
2. V15Y
3. N19M
4. L7A
5. R11N
6. A13K

Result string:
1. 1.81
2. 1.06
3. 3.78
4. 1.73
5. 3.3
6. 1.98

For each of the items listed, what is its protein stability index?
1. V15P
2. S17N
3. E10H
4. E3D
5. L21R

Result string:
[2.53, 2.33, 2.69, 3.15, 1.63]

Please give protein stability index for each item listed below.
1. F9A
2. A13I
3. L12M
4. K22T

Result string:
[2.33, 3.35, 3.48, 2.34]

Required: protein stability index, one value per variant below.
1. R11Q
2. A13Y
3. L21N
4. S17L

Result string:
3.1
3.93
1.88
2.06

Dear reader, for each entry below, please note its protein stability index.
1. C24K
2. A13F
3. E10S
4. E10Q
5. E10D

Result string:
1.61
1.67
2.96
2.03
3.16

Query string: Requested field: protein stability index. Item: P8T
Result string: 3.92
